# system.tested: T1, SCAF8-CID (human, UniProt Q9UPN6 1-139)
# T1 sequence: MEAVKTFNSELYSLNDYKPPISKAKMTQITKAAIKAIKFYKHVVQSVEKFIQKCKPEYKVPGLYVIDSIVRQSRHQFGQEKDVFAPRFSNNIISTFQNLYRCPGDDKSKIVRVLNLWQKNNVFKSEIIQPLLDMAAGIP
# assay.method.text: SPR
pKd: −log10 of the molar value.
Listing of entries alongside the reported pKd.

binder	pKd
GTGGG (ssDNA) [SCAF4_LS (D2_5nt)]	7.12
CAGGTGGGTTC (ssDNA) [SRiApt-2 (F7_11nt_B)]	7.04
TTAAAGGGGTGGGGAGTCAT (ssDNA) [SRiApt-3]	7.16
